Cited source: patent US20250154163A1

Listed here: items and their measured IC50.
# system.name: human HSD17β13 (stable HEK293T cell line overexpressing human HSD17β13) (Homo sapiens, UniProt Q7Z5P4)
# Sequence (Q7Z5P4 20-300): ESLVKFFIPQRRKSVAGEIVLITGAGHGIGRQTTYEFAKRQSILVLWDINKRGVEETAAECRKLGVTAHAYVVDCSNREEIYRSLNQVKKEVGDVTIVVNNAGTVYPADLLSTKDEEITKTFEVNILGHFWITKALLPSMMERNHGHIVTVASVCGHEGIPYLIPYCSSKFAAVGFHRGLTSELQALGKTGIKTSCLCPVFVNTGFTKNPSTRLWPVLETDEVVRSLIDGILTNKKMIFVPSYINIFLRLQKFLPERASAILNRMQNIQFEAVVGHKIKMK
# test.summary: HSD17β13 inhibitor cell-based screening assay (conversion of estradiol-d2 to estrone-d2 by RF-MS)
# assay.setup: conversion of estradiol-d2 to estrone-d2 after 24 hours

O=c1c2c(nc(-c3ncc(C(F)(F)F)cc3C3CC3)n1Cc1cc(C(F)(F)F)no1)sc1c(O)c(Cl)ccc12	< 100 nM

Fill in: IC50 of COc1ccc(-c2nc3sc4c(O)c(Cl)ccc4c3c(=O)n2CC2=NCCO2)c(C2CC2)c1 is ___
100 to 500 nM

Record: O=c1c2c(nc(-c3cc(F)c(F)cc3C3CC3)n1Cc1cc(C(F)(F)F)no1)sc1c(O)c(Cl)cc(F)c12
< 100 nM

Record: COc1ccc(-c2nc3sc4c(OS(=O)(=O)O)cccc4c3c(=O)n2Cc2cnco2)c(C2CC2)c1
1000 to 100000 nM

Record: O=c1c2c(nc(-c3ccc(F)cc3C3CC3)n1Cc1cnco1)sc1c(O)c(Cl)ccc12
< 100 nM

Record: O=c1c2c(nc(-c3cc(F)c(F)cc3C3CC3)n1Cc1cc(Br)no1)sc1c(O)c(Cl)ccc12
< 100 nM

Record: COc1ccc(-c2nc3sc4c(NC(C)=O)cccc4c3c(=O)n2Cc2cnco2)c(C2CC2)c1
1000 to 100000 nM
